test system: Pichia kudriavzevii; experiment: Antifungal activity against Candida krusei ATCC 6258 measured after 48 hrs by CLSI M27-A3 protocol based method; format: functional; settings: Pichia kudriavzevii, ATCC 6258, 48 h
metric_name: MIC (µM)

> print(dat)
                                   molecule  metric.name  units.symbol  bound.type  value.measured
1  CC(C)c1ccc(NCC(O)(Cn2cncn2)c2ccc(F)cc2F)cc1 (stereo unspecified)          MIC            µM           >              84
2  CCCCCCN(CCCCCC)CC(O)(Cn1cncn1)c1ccc(F)cc1F (stereo unspecified)          MIC            µM           >            74.1
3  OCCCCCCNCC(O)(Cn1cncn1)c1ccc(F)cc1F (stereo unspecified)          MIC            µM           >            88.3
4  CCCCCCCCCCCCNCC(O)(Cn1cncn1)c1ccc(F)cc1F (stereo unspecified)          MIC            µM           =             2.3
5  CCCCCOCCCCCCNCC(O)(Cn1cncn1)c1ccc(F)cc1F (stereo unspecified)          MIC            µM           =             4.6
6  CCCCCCCCN(CCCCCCCC)CC(O)(Cn1cncn1)c1ccc(F)cc1F (stereo unspecified)          MIC            µM           =            65.4

* * *

In this section, each of the molecules is paired with its reported MIC.
tested on: Cryptococcus neoformans; test: Antifungal activity against Cryptococcus neoformans isolate CN1 measured after 48 hrs by CLSI M27-A3 protocol based method; format: functional; conditions: isolate CN1, 48 h
metric_name: MIC (µM)

> print(dat)
                                   molecule             assay.target  bound.type  value.measured
1  CCCCCCCCN(CCCCCCCC)CC(O)(Cn1cncn1)c1ccc(F)cc1F (configuration not stated)  Cryptococcus neoformans           >            65.4
2  CCCCCCN(CCCCCC)CC(O)(Cn1cncn1)c1ccc(F)cc1F (configuration not stated)  Cryptococcus neoformans           >            74.1
3  CCCCCCCCCCCCNCC(O)(Cn1cncn1)c1ccc(F)cc1F (configuration not stated)  Cryptococcus neoformans           =            0.57
4  CC(C)c1ccc(NCC(O)(Cn2cncn2)c2ccc(F)cc2F)cc1 (configuration not stated)  Cryptococcus neoformans           =            20.9
5  OCCCCCCNCC(O)(Cn1cncn1)c1ccc(F)cc1F (configuration not stated)  Cryptococcus neoformans           >            88.3
6  OC(CNC1CCCCCCC1)(Cn1cncn1)c1ccc(F)cc1F (configuration not stated)  Cryptococcus neoformans           =            21.4
7  CCCCCCCCCCNCC(O)(Cn1cncn1)c1ccc(F)cc1F (configuration not stated)  Cryptococcus neoformans           =            0.61

* * *

test system: Aspergillus nidulans; test: Antifungal activity against Aspergillus nidulans ATCC 38163 measured after 48 hrs by CLSI M38-A2 protocol based method; assay type: functional; conditions: ATCC 38163, 48 h
In this section, each of the compounds is paired with its reported MIC.

compound	MIC
CCCCCCN(CCCCCC)CC(O)(Cn1cncn1)c1ccc(F)cc1F (stereo not given)	> 74.1 µM
OC(CNC1CCCCCCC1)(Cn1cncn1)c1ccc(F)cc1F (stereo not given)	> 85.8 µM
OCCCCCCNCC(O)(Cn1cncn1)c1ccc(F)cc1F (stereo not given)	> 88.3 µM
CC[C@H](C)C[C@H](C)CCCCCCCCC(=O)N[C@H]1C[C@@H](O)[C@@H](NCCN)NC(=O)[C@@H]2[C@@H](O)CCN2C(=O)[C@H]([C@H](O)CCN)NC(=O)[C@H]([C@H](O)[C@@H](O)c2ccc(O)cc2)NC(=O)[C@@H]2C[C@@H](O)CN2C(=O)[C@H]([C@@H](C)O)NC1=O [CASPOFUNGIN]	> 25.8 µM
CCCCCCNCC(O)(Cn1cncn1)c1ccc(F)cc1F (stereo not given)	> 92.3 µM

The origin of these recorded values is ChEMBL document CHEMBL4118101.
